# system-tested: PDE4B catalytic domain (PDE4Bcat) (Homo sapiens, UniProt Q07343)
# Construct: The cDNA of PDE4B catalytic domain (hereinafter abbreviated as Cat) was isolated from human RNA by RT-PCR; made in house; host or cells: Sf9 insect cells (baculovirus, Gateway / Bac-to-Bac)
# Sequence (Q07343 330-659 limits assumed): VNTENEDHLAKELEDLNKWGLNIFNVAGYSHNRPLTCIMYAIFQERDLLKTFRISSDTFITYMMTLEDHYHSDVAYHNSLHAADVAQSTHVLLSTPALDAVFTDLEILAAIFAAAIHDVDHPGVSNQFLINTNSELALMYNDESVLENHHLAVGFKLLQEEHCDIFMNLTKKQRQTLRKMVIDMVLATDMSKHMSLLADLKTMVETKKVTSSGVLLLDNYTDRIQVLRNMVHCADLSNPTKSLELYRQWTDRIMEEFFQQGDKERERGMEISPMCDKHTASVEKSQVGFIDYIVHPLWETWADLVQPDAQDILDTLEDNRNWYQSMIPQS
# test-name: Phosphodiesterase inhibitory activity ([3H]cAMP breakdown, recombinant PDE4Bcat)
# Type: biochemical
# measurement-setup: 30° C. 20 minutes, read-out: IC50(μmol/L) PDE4
reported-property: IC50

INSERT INTO measurements (test_smiles, result) VALUES
  ('CC(=O)c1ccc(C(=O)Nc2c(Cl)cncc2Cl)c2cc(C(F)(F)F)nn12', '< 0.1 µmol/L'),
  ('COc1ccc(C(=O)Nc2c(Cl)c[n+](O)cc2Cl)c2cc(C#N)nn12', '< 0.1 µmol/L'),
  ('COc1ccc(C(=O)Nc2c(Cl)cc(Cl)cc2Cl)c2cc(C(F)(F)F)nn12', '0.1 to 10 µmol/L'),
  ('COc1ccc(C(=O)Nc2c(Cl)cncc2Cl)c2cc(C(F)F)nn12', '< 0.1 µmol/L'),
  ('CCc1cc2c(C(=O)Nc3c(Cl)c[n+]([O-])cc3Cl)ccc(OC)n2n1', '< 0.1 µmol/L'),
  ('COc1ccc(C(=O)Nc2c(Cl)cncc2Cl)c2cc(C=NO)nn12', '< 0.1 µmol/L'),
  ('COCc1cc2c(C(=O)Nc3c(Cl)cncc3Cl)ccc(OC)n2n1', '< 0.1 µmol/L'),
  ('COc1ccc(C(=O)Nc2c(Cl)c[n+](O)cc2Cl)c2cc(C(C)C)nn12', '< 0.1 µmol/L'),
  ('COc1ccc(C(=O)Nc2c(Cl)cncc2Cl)c2c(O)c(C(F)(F)F)nn12', '0.1 to 10 µmol/L');

* * *

# System: histamine-induced bronchoconstriction
# test-name: Histamine-induced airway contraction reaction in guinea pigs
# Format: in vivo
# measurement-setup: Cavia porcellus, iv, 0.5 min, i.v., 0.3 mg/kg administration (results in brackets), 30 seconds after administration, read-out: Inhibition ratio
Entries annotated with measured inhibition in vivo at 0.3 mg/kg
reported-property: inhibition in vivo at 0.3 mg/kg

INSERT INTO results (compound, result) VALUES
  ('COc1ccc(C(=O)Nc2c(Cl)c[n+]([O-])cc2Cl)c2ccnn12 [Example 41]', '30 to 70%'),
  ('COc1ccc(C(=O)Nc2c(Cl)cncc2Cl)c2ccnn12 [Example 40]', '70 to 90%'),
  ('COc1ccc(C(=O)Nc2c(Cl)c[n+](O)cc2Cl)c2cc(C3CC3)nn12 [Example 25]', '≥ 90%'),
  ('COCc1cc2c(C(=O)Nc3c(Cl)c[n+](O)cc3Cl)ccc(OC)n2n1 [Example 77]', '30 to 70%'),
  ('COc1ccc(C(=O)Nc2c(Cl)cncc2Cl)c2cc(C=O)nn12 [Example 78]', '70 to 90%'),
  ('CCc1cc2c(C(=O)Nc3c(Cl)c[n+]([O-])cc3Cl)ccc(OC)n2n1 [Example 11]', '70 to 90%');

* * *

# system-tested: PDE4B catalytic domain (PDE4Bcat) (Homo sapiens)
# Construct: The cDNA of PDE4B catalytic domain (hereinafter abbreviated as Cat) was isolated from human RNA by RT-PCR
# test-name: Phosphodiesterase inhibitory activity ([3H]cAMP breakdown, recombinant PDE4Bcat)
# measurement-setup: 30° C. 20 minutes, read-out: IC50(μmol/L) PDE4
# Experimental: The cDNA of PDE4B catalytic domain (hereinafter abbreviated as Cat) was isolated from human RNA by RT-PCR. […] A 4 mmol/L solution of each test compound was serially diluted four-fold with a 15% DMSO solution to prepare solutions with concentrations of 15 nmol/L to 4 mmol/L (the final concentrations used in the experiments were 1.5 nmol/L to 400 μmol/L). […] IC50 values were calculated using Graph Pad Prism v3.03 (product of GraphPad Software). […]
pIC50: −log10 of the molar value.
Listed next: entries and their corresponding pIC50.
reported-property: pIC50

INSERT INTO measurements (test_smiles, system_tested, result) VALUES
  ('COc1ccc(C(=O)Nc2c(Cl)cncc2Cl)c2c(Cl)c(C(F)(F)F)nn12', 'PDE4B catalytic domain (PDE4Bcat) (Homo sapiens)', '> 7.00'),
  ('COc1ccc(C(=O)Nc2c(Cl)c[n+]([O-])cc2Cl)c2ccnn12', 'PDE4B catalytic domain (PDE4Bcat) (Homo sapiens)', '> 7.00'),
  ('CCc1cc2c(C(=O)Nc3c(Cl)cncc3Cl)ccc(OC)n2n1', 'PDE4B catalytic domain (PDE4Bcat) (Homo sapiens)', '> 7.00'),
  ('CSc1ccc(C(=O)Nc2c(Cl)cncc2Cl)c2cc(C(F)(F)F)nn12', 'PDE4B catalytic domain (PDE4Bcat) (Homo sapiens)', '> 7.00'),
  ('COc1ccc(C(=O)Nc2c(Cl)cncc2Cl)c2cc(C(C)=O)nn12', 'PDE4B catalytic domain (PDE4Bcat) (Homo sapiens)', '> 7.00'),
  ('O=C(Nc1c(Cl)cncc1Cl)c1ccc(CO)n2nc(C(F)(F)F)cc12', 'PDE4B catalytic domain (PDE4Bcat) (Homo sapiens)', '> 7.00'),
  ('COc1ccc(C(=O)Nc2c(Cl)cncc2Cl)c2cc(C(=O)O)nn12', 'PDE4B catalytic domain (PDE4Bcat) (Homo sapiens)', '5.00 to 7.00'),
  ('COc1ccc(C(=O)Nc2c(Cl)cncc2Cl)c2cc(C#N)nn12', 'PDE4B catalytic domain (PDE4Bcat) (Homo sapiens)', '> 7.00'),
  ('CCc1cc2c(C(=O)Nc3c(Cl)cncc3Cl)cccn2n1', 'PDE4B catalytic domain (PDE4Bcat) (Homo sapiens)', '5.00 to 7.00');

Taken from patent US20100056791A1.
